Reference for the values: paper PMC7826789

Percent Control for assorted compounds
# System: ASK1
# Construct: gene MAP3K5
# reported conditions: Compound Concentration (nM):1000;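 further: KINOMEscan scanMAX binding as percent activity remaining versus control; lower means stronger binding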
metric name: Percent Control (%)

> print(dat)
                                   compound  target.or.test.system  readout.unit  observed.result
1  COc1ccccc1-c1cc(/C=C2\C(=O)Nc3ncc(Br)cc32)cc(Br)c1O [GW442130X]                   ASK1             %               98
2  COc1ccc(COc2ccc(Cc3cnc(N)nc3N)cc2OC)cc1 [GW632580X]                   ASK1             %               80
3  COc1cc(C)c(N(C)C(=O)CN(C)C)cc1Nc1nc(Nc2cccc(F)c2C(N)=O)c2cc[nH]c2n1 [GSK2219385]                   ASK1             %              100
4  NS(=O)(=O)c1ccc(N/N=C2\C(=O)Nc3ccc(C(=O)NCc4ccncc4)cc32)cc1 [GW300657X]                   ASK1             %              100
5  Cl.O=S1CCN(Cc2ccc(-c3ccc4ncnc(Nc5ccc(OCc6ccccc6)c(F)c5)c4c3)o2)CC1 [GW576924A]                   ASK1             %              100
6  COc1cc2ncnc(Nc3ccc4c(cnn4Cc4ccccc4)c3)c2cc1OC.Cl [GW282449A]                   ASK1             %              100
7  CCS(=O)(=O)c1ccc(OC)c(Nc2ncc(-c3cccc(OC)c3)o2)c1 [GW580509X]                   ASK1             %              100
8  Cc1cc(O)cc(C)c1/C=C/c1cncc(C(N)=O)c1 [GW435821X]                   ASK1             %              100

----------
# Tested on: TAOK1
# reported conditions: Compound Concentration (nM):1000
metric name: Percent Control (%)

> print(dat)
                                    molecule  readout.unit  observed.result
 1  COc1cc(/C=N/Nc2ncnc3[nH]ncc23)ccc1O [GW578748X]             %               51
 2  NS(=O)(=O)c1ccc(N/N=C2\C(=O)Nc3ccc(-c4cnco4)cc32)cc1 [GW276655]             %               86
 3  Nc1ncnc2occ(-c3ccc(NC(=O)Nc4cc(C(F)(F)F)ccc4F)cc3)c12 [GW770249X]             %               75
 4  COc1cc(C)c(N(C)C(=O)CN(C)C)cc1Nc1nc(Nc2cccc(F)c2C(N)=O)c2cc[nH]c2n1 [GSK2219385]             %              100
 5  COc1cc2ncn(-c3cc(O[C@H](C)c4ccccc4Cl)c(C(N)=O)s3)c2cc1OC [GSK237701A]             %               54
 6  COc1ccc2cc(-c3c(-c4ccncc4)nc(-c4ccc(S(C)(=O)=O)cc4C)n3C)ccc2c1 [SB-633825]             %               84
 7  CCc1ccc(Oc2nccc(-c3c(-c4ccc(F)cc4)ncn3C3CCNCC3)n2)cc1 [SB-242719]             %               82
 8  COc1ccc2[nH]c3c4[nH]c5ccc(OC)cc5c4c4c(c3c2c1)C(=O)NC4=O [GW296115X]             %              100
 9  COc1cc2ncnc(Nc3ccc4c(cnn4Cc4ccccc4)c3)c2cc1OC.Cl [GW282449A]             %              100
10  COc1cc(N2CCN(C(C)C)CC2)ccc1Nc1nc(Nc2ccc(F)cc2C(=O)NC[C@@H](O)CO)c2cc[nH]c2n1 [GSK1392956A]             %               67
11  CC1=C(C(=O)Nc2ccc3[nH]ncc3c2)C(c2ccc3ccccc3c2)CC(=O)N1 (stereo not shown) [GSK270822A]             %               76
12  Cc1cc(O)cc(C)c1/C=C/c1cncc(C(N)=O)c1 [GW435821X]             %               74
13  Cl.O=C(Nc1ccc(Oc2ccc3[nH]c(NC(=O)c4ccccc4)nc3c2)cc1)Nc1cc(C(F)(F)F)ccc1F [GW709042A]             %               90
14  NS(=O)(=O)c1ccc(N/N=C2\C(=O)Nc3ccc(Cl)cc32)cc1 [GW280670X]             %               95
15  COc1ccc2c(-c3ccnc(Nc4cccc(OC(F)(F)F)c4)n3)cnn2n1 [GW810372X]             %               73
16  NS(=O)(=O)c1ccc(N/N=C2\C(=O)Nc3ccc(C(=O)NCCc4c[nH]cn4)cc32)cc1 [GW300660X]             %               75

----------
# System: FLT3(R834Q)
# reported conditions: Compound Concentration (nM):1000
metric name: Percent Control (%)

> print(dat)
                                   compound  target.or.test.system  readout.unit  observed.result
1  CN(C)CCNC(=O)Nc1ccc(N(C)c2ccnc(Nc3ccc(CS(C)(=O)=O)cc3)n2)cc1.Cl [GW830900A]            FLT3(R834Q)             %               16
2  CCS(=O)(=O)c1ccc(OC)c(Nc2ncc(-c3cccc(F)c3)o2)c1 [GW621970X]            FLT3(R834Q)             %               29
3  COc1ccc(COc2ccc(Cc3cnc(N)nc3N)cc2OC)cc1 [GW632580X]            FLT3(R834Q)             %               97
4  COc1cc2ncnc(Nc3ccc4c(cnn4Cc4ccccc4)c3)c2cc1OC.Cl [GW282449A]            FLT3(R834Q)             %               83
5  NS(=O)(=O)c1ccc(N/N=C2\C(=O)Nc3ccc(C(=O)NCc4ccncc4)cc32)cc1 [GW300657X]            FLT3(R834Q)             %               68

----------
Percent Control for assorted molecules
# Test system: PRKD1
# reported conditions: Compound Concentration (nM):1000
metric name: Percent Control (%)

> print(dat)
                                   molecule  target.or.test.system      metric.name  observed.result
1  C[C@@H](Oc1cc(-n2cnc3ccc(OC4CCN(C)CC4)cc32)sc1C(N)=O)c1ccccc1Cl [GSK579289A]                  PRKD1  Percent Control              100
2  COc1ccc2cc(-c3c(-c4ccncc4)nc(-c4ccc(S(C)(=O)=O)cc4C)n3C)ccc2c1 [SB-633825]                  PRKD1  Percent Control               84
3  COc1cc(C=NNc2ncnc3c2cnn3-c2ccccc2)ccc1O [GW513184X]                  PRKD1  Percent Control              100
4  Cl.O=S1CCN(Cc2ccc(-c3ccc4ncnc(Nc5ccc(OCc6ccccc6)c(F)c5)c4c3)o2)CC1 [GW576924A]                  PRKD1  Percent Control              100
5  NS(=O)(=O)c1ccc(N/N=C2\C(=O)Nc3ccc(C(=O)NCc4ccncc4)cc32)cc1 [GW300657X]                  PRKD1  Percent Control              100

----------
Percent Control for assorted molecules
# Test system: FLT3(ITD,F691L)
# reported conditions: Compound Concentration (nM):1000
metric name: Percent Control (%)

> print(dat)
                                   molecule  target.or.test.system  observed.result
1  COc1cc2ncn(-c3cc(O[C@H](C)c4ccccc4Cl)c(C(N)=O)s3)c2cc1OC [GSK237701A]        FLT3(ITD,F691L)               21
2  CCc1ccc(Oc2nccc(-c3c(-c4ccc(F)cc4)ncn3C3CCNCC3)n2)cc1        FLT3(ITD,F691L)               93
3  Cl.O=C(Nc1ccc(Oc2ccc3[nH]c(NC(=O)c4ccccc4)nc3c2)cc1)Nc1cc(C(F)(F)F)ccc1F [GW709042A]        FLT3(ITD,F691L)               56
4  COc1ccccc1-c1cc(/C=C2\C(=O)Nc3ncc(Br)cc32)cc(Br)c1O [GW442130X]        FLT3(ITD,F691L)              100
5  COc1ccc(COc2ccc(Cc3cnc(N)nc3N)cc2OC)cc1 [GW632580X]        FLT3(ITD,F691L)               99
6  CC1=C(C(=O)Nc2ccc3[nH]ncc3c2)C(c2ccc3ccccc3c2)CC(=O)N1 (stereo not drawn) [GSK270822A]        FLT3(ITD,F691L)               79
7  NS(=O)(=O)c1ccc(N/N=C2\C(=O)Nc3ccc(C(=O)NCCc4c[nH]cn4)cc32)cc1 [GW300660X]        FLT3(ITD,F691L)              4.1
8  COc1ccc2c(-c3ccnc(Nc4cccc(OC(F)(F)F)c4)n3)cnn2n1 [GW810372X]        FLT3(ITD,F691L)               89
9  CCS(=O)(=O)c1ccc(OC)c(Nc2ncc(-c3cccc(OC)c3)o2)c1 [GW580509X]        FLT3(ITD,F691L)               30
